Reported values: MIC for Escherichia coli K88, one per item.
# number only, unit µM dropped from output

Solved cases (4 shown):
For CC(C)[C@H](NC(=O)[C@H](CCCN=C(N)N)NC(=O)[C@H](Cc1c[nH]c2ccccc12)NC(=O)[C@H](CCCN=C(N)N)NC(=O)[C@H](Cc1c[nH]c2ccccc12)NC(=O)[C@H](Cc1c[nH]c2ccccc12)NC(=O)[C@H](Cc1c[nH]c2ccccc12)NC(=O)[C@H](CCCN=C(N)N)NC(=O)[C@H](Cc1c[nH]c2ccccc12)NC(=O)[C@@H](N)CCCN=C(N)N)C(N)=O , what is its reported MIC?
4

And NC(=O)[C@H](Cc1c[nH]c2ccccc12)NC(=O)[C@H](CCCN=C(N)N)NC(=O)[C@H](Cc1c[nH]c2ccccc12)NC(=O)[C@H](CCCN=C(N)N)NC(=O)[C@H](Cc1c[nH]c2ccccc12)NC(=O)[C@H](Cc1c[nH]c2ccccc12)NC(=O)[C@H](Cc1c[nH]c2ccccc12)NC(=O)[C@H](CCCN=C(N)N)NC(=O)[C@H](Cc1c[nH]c2ccccc12)NC(=O)[C@@H](N)CCCN=C(N)N ?
2

And CC[C@H](C)[C@H](NC(=O)[C@H](CCCN=C(N)N)NC(=O)[C@H](C)NC(=O)[C@H](C)N)C(=O)N[C@H](C(=O)N[C@@H](CC(C)C)C(=O)N[C@@H](CCCN=C(N)N)C(=O)N[C@@H](CC(C)C)C(=O)N[C@@H](CCCN=C(N)N)C(=O)N[C@@H](Cc1ccccc1)C(=O)N[C@@H](CCCN=C(N)N)C(N)=O)[C@@H](C)CC ?
4

And CC(C)C[C@H](NC(=O)CNC(=O)[C@H](CCCCN)NC(=O)[C@H](Cc1c[nH]c2ccccc12)NC(=O)[C@H](CCCCN)NC(=O)CNC(=O)[C@H](CC(C)C)NC(=O)[C@H](CC(C)C)NC(=O)[C@@H](N)CCCCN)C(=O)N[C@@H](CC(C)C)C(=O)N[C@@H](CCCCN)C(N)=O ?
4

Note: attention shifts to another entry.
For CC[C@H](C)[C@H](NC(=O)[C@H](CCCN=C(N)N)NC(=O)[C@H](Cc1c[nH]c2ccccc12)NC(=O)[C@H](CCCN=C(N)N)NC(=O)[C@H](Cc1c[nH]c2ccccc12)NC(=O)[C@H](Cc1c[nH]c2ccccc12)NC(=O)[C@H](Cc1c[nH]c2ccccc12)NC(=O)[C@H](CCCN=C(N)N)NC(=O)[C@H](Cc1c[nH]c2ccccc12)NC(=O)[C@H](CCCN=C(N)N)NC(=O)CN)C(N)=O , what is its reported MIC?
4

----------
Reported values: MIC for Escherichia coli ATCC 25922, one per item.
# number only, unit µM dropped from output

For CC(C)C[C@H](NC(=O)[C@H](CCCN=C(N)N)NC(=O)[C@H](CCCCN)NC(=O)[C@H](Cc1c[nH]c2ccccc12)NC(=O)[C@@H](NC(=O)[C@H](CCCCN)NC(=O)[C@H](CCCCN)NC(=O)[C@H](Cc1c[nH]c2ccccc12)NC(=O)[C@H](CC(C)C)NC(=O)[C@H](CCCN=C(N)N)NC(=O)[C@@H](N)CCCN=C(N)N)[C@@H](C)O)C(=O)N[C@@H](Cc1c[nH]c2ccccc12)C(N)=O [RRLWKKTWKRLW] , what is its reported MIC?
4

Continuing:
For CC[C@H](C)[C@H](NC(=O)[C@H](CCCCN)NC(=O)[C@H](CCCCN)NC(=O)[C@H](C)NC(=O)[C@H](CC(C)C)NC(=O)[C@H](CCCCN)NC(=O)[C@H](CCCCN)NC(=O)[C@H](CC(C)C)NC(=O)[C@H](CCCN=C(N)N)NC(=O)[C@H](CCCCN)NC(=O)[C@@H](N)Cc1ccccc1)C(=O)N[C@@H](Cc1c[nH]c2ccccc12)C(=O)N[C@@H](CC(N)=O)C(=O)N[C@@H](Cc1c[nH]c2ccccc12)C(=O)N[C@@H](CCCCN)C(N)=O [FKRLKKLAKKIWNWK] , what is its reported MIC?
4

And CC(C)C[C@H](NC(=O)[C@H](Cc1ccccc1)NC(=O)CN)C(=O)N[C@@H](CCCCN)C(=O)N[C@@H](CCCN=C(N)N)C(=O)N[C@@H](Cc1ccccc1)C(=O)N[C@@H](CCCCN)C(=O)N[C@H](C(=O)N[C@@H](CC(C)C)C(=O)N[C@@H](Cc1ccccc1)C(N)=O)[C@@H](C)O [GFLKRFKTLF] ?
64

And CC(C)[C@H](N)C(=O)N[C@@H](CCCCN)C(=O)N[C@@H](CCCN=C(N)N)C(=O)N[C@@H](Cc1c[nH]c2ccccc12)C(=O)N[C@@H](CCCCN)C(=O)N[C@@H](CCCCN)C(=O)N[C@@H](Cc1c[nH]c2ccccc12)C(=O)N[C@@H](CCCN=C(N)N)C(=O)N[C@@H](Cc1c[nH]c2ccccc12)C(=O)N[C@@H](CCCCN)C(=O)N[C@@H](Cc1c[nH]c2ccccc12)C(=O)N[C@@H](CCCCN)C(=O)N[C@@H](CCCCN)C(=O)N[C@@H](Cc1c[nH]c2ccccc12)C(=O)N[C@H](C(N)=O)C(C)C [VKRWKKWRWKWKKWV] ?
4.21

----------
System: Staphylococcus aureus USA 300
Item-by-item account of MIC
# number only, unit µM dropped from output

Solved cases (5 shown):
Given the entry CC[C@H](C)[C@H](NC(=O)[C@H](CCCCN)NC(=O)[C@@H]1CCCN1C(=O)[C@@H](NC(=O)[C@H](CC(C)C)NC(=O)[C@H](CCCCN)NC(=O)[C@H](CC(C)C)NC(=O)[C@@H](NC(=O)[C@H](CO)NC(=O)CNC(=O)[C@H](Cc1ccccc1)NC(=O)[C@@H](N)Cc1ccccc1)C(C)C)[C@@H](C)CC)C(=O)N[C@@H](CC(C)C)C(N)=O , what MIC was observed with Staphylococcus aureus USA 300?
3.12

And CC[C@H](C)[C@H](N)C(=O)N[C@@H](CCCN=C(N)N)C(=O)N[C@H](C(=O)N[C@@H](CCCN=C(N)N)C(=O)N[C@H](C(=O)N[C@@H](CCCN=C(N)N)C(=O)N[C@H](C(=O)N[C@@H](CCCN=C(N)N)C(N)=O)[C@@H](C)CC)[C@@H](C)CC)[C@@H](C)CC ?
6.25

And CC(C)C[C@H](NC(=O)[C@H](CC(C)C)NC(=O)[C@H](CCCCN)NC(=O)[C@@H]1CCCN1C(=O)[C@H](CC(C)C)NC(=O)[C@H](CC(C)C)NC(=O)[C@H](CCCCN)NC(=O)[C@H](CC(C)C)NC(=O)[C@H](CC(C)C)NC(=O)[C@H](CO)NC(=O)CNC(=O)[C@H](Cc1ccccc1)NC(=O)[C@@H](N)Cc1ccccc1)C(N)=O ?
1.1

And CC(C)C[C@H](NC(=O)[C@H](CC(C)C)NC(=O)[C@H](CCCCN)NC(=O)[C@@H]1CCCN1C(=O)[C@H](CC(C)C)NC(=O)[C@H](CC(C)C)NC(=O)[C@H](CCCCN)NC(=O)[C@H](CC(C)C)NC(=O)[C@H](CC(C)C)NC(=O)[C@H](CO)NC(=O)CNC(=O)[C@H](CC(C)C)NC(=O)[C@@H](N)CC(C)C)C(N)=O ?
1.1

And CC[C@H](C)[C@H](NC(=O)[C@H](CC(=O)O)NC(=O)[C@H](Cc1ccccc1)NC(=O)[C@H](CC(C)C)NC(=O)CN)C(=O)N[C@H](C(=O)N[C@@H](CCCCN)C(=O)N[C@@H](CCCCN)C(=O)N[C@H](C(=O)N[C@H](C(=O)NCC(=O)N[C@@H](C)C(=O)N[C@@H](CC(C)C)C(N)=O)C(C)C)C(C)C)C(C)C ?
11.8

Continuing:
Given the entry CC(C)C[C@H](NC(=O)[C@H](Cc1c[nH]c2ccccc12)NC(=O)[C@H](Cc1c[nH]c2ccccc12)NC(=O)[C@@H](N)Cc1c[nH]c2ccccc12)C(=O)N[C@@H](CCCN=C(N)N)C(=O)N[C@@H](CCCN=C(N)N)C(=O)N[C@@H](CCCN=C(N)N)C(=O)N[C@@H](Cc1c[nH]c2ccccc12)C(=O)O , what MIC was observed with Staphylococcus aureus USA 300?
4

----------
Reported values: MIC for Micrococcus luteus ATCC 4698, one per item.
# number only, unit µM dropped from output

Solved cases (3 shown):
For CC[C@H](C)[C@H](N)C(=O)N[C@@H](CC(N)=O)C(=O)N[C@@H](Cc1c[nH]c2ccccc12)C(=O)N[C@@H](CCCCN)C(=O)N[C@@H](CCCCN)C(=O)N[C@H](C(=O)N[C@@H](CCCCN)C(=O)N[C@@H](CCCCN)C(=O)N[C@@H](CCCCN)C(=O)N[C@H](C(=O)N[C@@H](C)C(=O)NCC(=O)N[C@@H](CCSC)C(=O)N[C@@H](CC(C)C)C(N)=O)C(C)C)[C@@H](C)CC [INWKKIKKKVAGML] , what is its reported MIC?
0.604

And NCCCC[C@@H]1NC(=O)[C@H](Cc2c[nH]c3ccccc23)NC(=O)CNC(=O)CNC(=O)[C@@H](N)CSSC[C@@H](C(=O)O)NC(=O)[C@H](CCCN=C(N)N)NC(=O)[C@H](CCCCN)NC(=O)[C@H](CCCN=C(N)N)NC1=O [CGGWKRKRC] ?
0.8

And CC(C)C[C@H](NC(=O)[C@H](CC(C)C)NC(=O)[C@H](CCCCN)NC(=O)[C@H](CO)NC(=O)[C@@H](NC(=O)[C@H](C)NC(=O)[C@H](CCCCN)NC(=O)[C@H](Cc1ccccc1)NC(=O)[C@H](CC(C)C)NC(=O)[C@H](C)NC(=O)CNC(=O)[C@H](CC(C)C)NC(=O)[C@@H](N)Cc1ccccc1)C(C)C)C(=O)O [FLGALFKAVSKLL] ?
4.98

Continuing:
For CC[C@H](C)[C@H](N)C(=O)N[C@@H](CC(N)=O)C(=O)N[C@@H](Cc1c[nH]c2ccccc12)C(=O)N[C@@H](CC(C)C)C(=O)N[C@@H](CCCCN)C(=O)N[C@H](C(=O)N[C@@H](CCCCN)C(=O)N[C@@H](CCCCN)C(=O)N[C@@H](CCCCN)C(=O)N[C@H](C(=O)N[C@@H](C)C(=O)NCC(=O)N[C@@H](CCSC)C(=O)N[C@@H](CC(C)C)C(N)=O)C(C)C)[C@@H](C)CC [INWLKIKKKVAGML] , what is its reported MIC?
2.44
